Cited source for all entries: paper PMC5146859

Assay: Phase 1 pharmacokinetics (liquid chromatography/tandem mass spectrometry)
Format: in vivo, human
Settings: human, in vivo, oral, 600 mg, phase 1, Day 1, 600 mg; read-out: AUC0-24h, Mean
OBSERVABLE: AUC(0-t) (µg·h/mL)
# number only, unit µg·h/mL dropped from output

Value of AUC(0-t) reported for the compound C1=C/COCc2cc(ccc2OCCN2CCCC2)Nc2nccc(n2)-c2cccc(c2)COC/1 [pacritinib] is 136

###

Test: Phase 1 pharmacokinetics (liquid chromatography/tandem mass spectrometry)
Format: in vivo, human
Settings: human, in vivo, oral, 500 mg, phase 1, Day 15, 500 mg; read-out: AUC0-24h, Mean
OBSERVABLE: AUC(0-t)

Value of AUC(0-t) reported for the compound C1=C/COCc2cc(ccc2OCCN2CCCC2)Nc2nccc(n2)-c2cccc(c2)COC/1 [pacritinib] is 178 µg·h/mL

###

Assay: Phase 1 pharmacokinetics (liquid chromatography/tandem mass spectrometry)
Format: in vivo, human
Settings: human, in vivo, oral, 600 mg, phase 1, Day 15, 600 mg; read-out: Cmax, Mean
OBSERVABLE: Cmax (ng/mL)
# number only, unit ng/mL dropped from output

Value of Cmax reported for the compound C1=C/COCc2cc(ccc2OCCN2CCCC2)Nc2nccc(n2)-c2cccc(c2)COC/1 is 9220

###

Experiment: Phase 1 pharmacokinetics (liquid chromatography/tandem mass spectrometry)
Type: in vivo, human
Details: human, in vivo, oral, 150 mg, phase 1, Day 1, 150 mg; read-out: AUC0-24h, Median
OBSERVABLE: AUC(0-t) (ng·h/mL)
# number only, unit ng·h/mL dropped from output

Value of AUC(0-t) reported for the molecule C1=C/COCc2cc(ccc2OCCN2CCCC2)Nc2nccc(n2)-c2cccc(c2)COC/1 [pacritinib] is 69200
